Source: ChEMBL document CHEMBL2016546

- Test system: MCF7
- ASSAY: Antiproliferative activity against ER-positive human MCF7 cells after 48 hrs by MTT assay
- MEASUREMENT_SETUP: MCF7, 48 h
RESULT_TYPE: pIC50
pIC50 here: minus log base 10 of the concentration, concentration in moles per litre.

Example compounds with recorded pIC50:
[
  {
    "SAMPLE_SMILES": "CC1=C/C(=N\\NC(=O)c2cccnc2)c2c(O)cccc2C1=O",
    "pIC50": 5.57
  },
  {
    "SAMPLE_SMILES": "CC1=C/C(=N\\NC(=O)c2ccncc2)c2c(O)cccc2C1=O",
    "pIC50": 5.21
  },
  {
    "SAMPLE_SMILES": "CC1=CC(=O)c2c(O)cccc2C1=O",
    "pIC50": 5.26
  },
  {
    "SAMPLE_SMILES": "CC1=C/C(=N\\NC(=O)c2ccccc2)c2c(O)cccc2C1=O",
    "pIC50": 5.55
  }
]

Kindly consider the entry below.
# lookup: pIC50 of `CC1=C/C(=N\NC(=O)c2ccccc2O)c2c(O)cccc2C1=O`
5.28
